// data source = patent EP0908457B1

system: Oryza sativa, (L.) Tebonnet; test: Rice tolerance to post-transplant applications under flooded paddy conditions (Example 187), ORYSAT (Rice, Tebonnet); conditions: Rate 0.2500 kg/ha, rated three to four weeks after treatment; note: meaning of each grade not given here
herbicidal effect rating ORYSAT for assorted compounds
Reply with just the number.

Previously resolved entries follow.
C#CCOC(=O)COc1ccc(OC)cc1-c1nsc2ccc(-n3c(=O)cc(C(F)(F)F)n(C)c3=O)cc12 | 7.0
COc1ccccc1C=C(C#N)c1nsc2ccc(-n3c(=O)cc(C(F)(F)F)n(C)c3=O)cc12 | 5.0
Cn1c(C(F)(F)F)cc(=O)n(-c2ccc3snc(/C=C/CBr)c3c2)c1=O | 9.0
Cc1cccc(COCc2nsc3ccc(-n4c(=O)cc(C(F)(F)F)n(C)c4=O)cc23)c1 | 5.0
COC(=O)c1nsc2ccc(-n3c(=O)cc(C(F)(F)F)n(C)c3=O)cc12 | 9.0
Cn1c(C(F)(F)F)cc(=O)n(-c2ccc3snc(COCc4ccc([N+](=O)[O-])cc4)c3c2)c1=O | 0.0

# input for lookup
# herbicidal effect rating ORYSAT measured on Oryza sativa, (L.) Tebonnet for item Cn1c(C(F)(F)F)cc(=O)n(-c2ccc3snc(C#N)c3c2)c1=O = 8.0
